The measured values listed here are drawn from the supplement of paper PMC10065799.

target: FGFR1 (UniProt P11362); assay: phosphorylation enrichment, bacterial display (enrichment ratio); higher = better substrate or ligand; peptides without Tyr show the background
Sequence (P11362 whole entry, looked up): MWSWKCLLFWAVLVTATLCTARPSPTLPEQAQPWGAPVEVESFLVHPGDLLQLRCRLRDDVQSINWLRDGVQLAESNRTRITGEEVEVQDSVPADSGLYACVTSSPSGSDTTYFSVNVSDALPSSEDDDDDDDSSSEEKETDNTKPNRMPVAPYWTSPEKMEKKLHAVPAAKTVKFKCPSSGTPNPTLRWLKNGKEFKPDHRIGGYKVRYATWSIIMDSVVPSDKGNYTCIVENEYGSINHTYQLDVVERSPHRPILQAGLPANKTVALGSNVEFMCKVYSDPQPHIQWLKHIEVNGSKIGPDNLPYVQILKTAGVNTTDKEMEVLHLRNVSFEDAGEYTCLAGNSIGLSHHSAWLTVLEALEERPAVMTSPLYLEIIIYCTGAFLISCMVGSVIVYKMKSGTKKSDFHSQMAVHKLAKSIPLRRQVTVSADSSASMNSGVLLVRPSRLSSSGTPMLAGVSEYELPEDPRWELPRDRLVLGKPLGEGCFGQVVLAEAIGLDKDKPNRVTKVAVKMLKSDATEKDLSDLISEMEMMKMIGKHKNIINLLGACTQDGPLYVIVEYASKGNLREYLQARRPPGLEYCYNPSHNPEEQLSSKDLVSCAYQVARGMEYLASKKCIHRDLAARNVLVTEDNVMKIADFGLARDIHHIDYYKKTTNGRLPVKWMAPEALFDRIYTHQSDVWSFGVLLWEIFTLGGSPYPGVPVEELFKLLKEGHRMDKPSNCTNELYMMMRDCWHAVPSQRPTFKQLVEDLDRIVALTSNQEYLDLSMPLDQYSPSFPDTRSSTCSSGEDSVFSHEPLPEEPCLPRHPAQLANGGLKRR
value-type: phosphorylation enrichment
Give only the figure.

Would you please look over these solved cases?
Look up phosphorylation enrichment for this sequence: GGRKGYGDFSR [RECQL5_Y478]
0.345

Same question for RRIHCYRGHLW [VHL_Y112_S111C] please.
0.475

Try this sequence too: CEHFSYYGMKA [SLC15A2_Y60_R57H]
5.26

How about KEKLCYVALDF [ACTA1_Y220] ?
2.4

Same thing, different sequence: HFNLTYRILSF [MMP23B_Y95]
0.486

More entries:
Look up phosphorylation enrichment: SGPRHYTIAAL [TTR_Y125_R124H]
0.404

Now this one: AASHRYDLGGL [QPRT_Y162]
0.416

----------
system: Fer (mouse); experiment: phosphorylation enrichment, bacterial display (enrichment ratio); higher = better substrate or ligand; peptides without Tyr show the background
value-type: phosphorylation enrichment
Keep the answer to the number alone.

Kindly state the measured phosphorylation enrichment obtained for EVVGRYSGHNA [MLH1_Y183_V185G] with Fer (mouse).
0.397

Same question for KVGNEYVNKGQ [MYH7_Y410_T412N] please.
0.404

Please give the result for IMWDSYTTNKV [GNB3_Y85_V81M] too.
0.392

Further, for TVLWWYTGTRP [UGT1A1_Y337_R336W] ?
0.398

# context switch: different sequence, same phosphorylation enrichment
Item ESDYTYSSSYE [SRPK2_Y427] with Fer (mouse) - phosphorylation enrichment?
0.68

----------
target: c-Src SH2; assay: SH2 binding enrichment of the phosphorylated peptide, bacterial display (enrichment ratio); higher = better substrate or ligand; peptides without Tyr show the background;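 note: peptide library displayed on the E. coli surface as eCPX fusions, selected cells deep-sequenced, score is each peptide's frequency after selection divided by its frequency in the input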
// SH2 binding enrichment lookup, one value per entry
Number only, no unit.

Worked set:
What value of SH2 binding enrichment has been reported for the following sequence? PGAPAYCVLME [MYO5A_Y1245_R1246C]
0.883

Then this sequence: NKKYHYRELPV [ERN2_Y860_H858Y]
1.06

Attention now shifts to the item below.
Requested field: SH2 binding enrichment. Item: YLELNYKEDEY [MME_Y502]
4.38

----------
The entries below are paired with their reported phosphorylation enrichment.
tested on: c-Abl (mouse); assay: phosphorylation enrichment, bacterial display (enrichment ratio); higher = better substrate or ligand; peptides without Tyr show the background
Please give the numeric answer without any surrounding text.

Which phosphorylation enrichment is reported for this sequence? FCVDCYKNFVA [FHL1_Y213_YF]
0.776

Try the sequence VHNLDYFKMTT [FGFR3_Y647_K650M_YF]
0.521

Another: ATATDYHTTSH [SLC4A1_Y46]
0.416

Same for DEGVNYFMSKG [FBXO8_Y156]
0.705

Can you check HKLSFYEFDFE [BTK_Y40_YF] next?
1.51

Also FEEDSYVTRSQ [RET_Y905_K907T_YF] ?
0.912

Further cases:
Quick one: phosphorylation enrichment of FLNSIYKCRDE [ROS1_Y2227_S2229C] ?
0.78

Now consider MDYRSYPREYG [RBM10_Y44] and answer again.
0.472

Repeat for the following sequence: RLEKEYFDQHF [NPC1_Y394]
0.795

Please answer likewise for LFEDRYLLGPS [ASS1_Y87_T91P_YF]
1.07

Try the sequence IMWDSYTTNKV [GNB3_Y85_V81M]
0.553

----------
system: c-Src; assay: phosphorylation enrichment, bacterial display (enrichment ratio); higher = better substrate or ligand; peptides without Tyr show the background
Some sequences, each annotated with its measured phosphorylation enrichment.
Keep it simple and answer with nothing but the number.

Example cases with answers are listed next.
Would you kindly share the measured phosphorylation enrichment for LTTEAYEWEPR [ELMOD3_Y61] ?
1.31

How about EGLRRYLENGK [HLA-A_Y195_W191G] ?
0.336

Next: PGLSSYGVPAS [FLNB_Y1530]
0.474

Same read-out for CSEEMYRLMLQ [RET_Y981] ?
0.643

Same for RIFDYYSARKT [STOX1_Y858_A863T]
0.473

---
Look at this sequence and give its reported phosphorylation enrichment. PNQRRYVFFFS [PTEN_Y174_S170N_YF]
0.677

Okay, and NPSFNYEIVNQ [DYNC1H1_Y3379_R3384Q_YF] ?
0.408

Can you check YRASYYRRGDR [LTK_Y677] next?
0.598

Proceed to PHIKTYMRPSP [TDP1_Y497]
0.435

Next up: YTGNTYRVGDT [FN1_Y106]
0.467

Then PTFKHYANSTQ [SLC12A3_Y70_E68K_YF] ?
0.365

// repeat for PADQAYSWYQH [NDST1_Y711_R709Q] and report
1.58

Now the sequence RRVEPYGENFN [APOA4_Y310]
0.643

// next record FDEFRYRSVIK [CFTR_Y517_YF]
0.46

What would you report for KVPELYEIHTE [BCR_Y554_K558T] ?
0.546

Repeat with AAVDTVCRHNY [HLA-DRB1_Y107_Y107V]
0.473

----------
Examples of sequences with documented phosphorylation enrichment follow.
molecular target: Hck (UniProt P08631); assay: phosphorylation enrichment, bacterial display (enrichment ratio); higher = better substrate or ligand; peptides without Tyr show the background
Sequence (P08631 whole entry, looked up): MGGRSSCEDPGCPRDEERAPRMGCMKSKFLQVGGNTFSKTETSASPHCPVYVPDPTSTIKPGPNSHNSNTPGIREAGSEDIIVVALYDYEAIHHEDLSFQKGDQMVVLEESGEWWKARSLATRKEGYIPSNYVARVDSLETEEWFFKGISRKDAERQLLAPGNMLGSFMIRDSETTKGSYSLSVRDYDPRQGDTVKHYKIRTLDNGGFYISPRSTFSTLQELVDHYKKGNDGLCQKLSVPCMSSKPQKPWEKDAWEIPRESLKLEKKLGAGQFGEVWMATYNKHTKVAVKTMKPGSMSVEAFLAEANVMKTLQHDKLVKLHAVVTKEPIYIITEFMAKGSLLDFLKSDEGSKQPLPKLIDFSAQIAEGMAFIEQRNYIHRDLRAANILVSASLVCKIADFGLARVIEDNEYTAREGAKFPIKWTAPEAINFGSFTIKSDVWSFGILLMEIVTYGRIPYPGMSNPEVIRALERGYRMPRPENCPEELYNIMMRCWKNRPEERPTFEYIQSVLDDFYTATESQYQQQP
Answer as a number with no unit attached.

Please review the entries below; each comes with its answer.
Which phosphorylation enrichment reading was recorded for the sequence YRQLQYCPSVE [CTNND2_Y508] ?
0.606

Also PVQAPYQKVVA [HBB_Y131_A130P] ?
0.687

Now consider DDFDLYGGEKF [PTPN11_Y66_Y62D_YF] .
3.11

---
May I ask what phosphorylation enrichment has been recorded for EILLSYPRTGY [TGM1_Y365_L366P] ?
0.371

Next: ISKQEYDEAGP [ACTC1_Y364]
0.616

Note, next up: GKSFIYAAFHA [KCNT1_Y563_T562I]
2.83

What do you have for KSVVTYSPTTG [ITGB3BP_Y32_I30V] ?
0.372

Can you check VGEGPYLLSDL [ABCC12_Y7_I9L] next?
0.432

----------
Reported phosphorylation enrichment values are given for each entry in this list.
system: c-Src; experiment: phosphorylation enrichment, bacterial display (enrichment ratio); higher = better substrate or ligand; peptides without Tyr show the background
Answer with a number only.

Some sequences with known phosphorylation enrichment results, for comparison:
Fill in the blank: the reported phosphorylation enrichment of QTEAEYRFIYM [PTPN11_Y511_Q510E] is ____.
0.878

Now this one: QGIIIYKAAFF [SLC25A4_Y187_R188K_YF]
0.917

Another sequence: LKALHYMVQTS [SACS_Y3367]
0.398

Next:
Bench note: what phosphorylation enrichment did IHTDAYVRAMT [RPE65_Y89_R85H] show?
0.363

Same question for TINPIYEHVGY [CHN1_Y143] please.
8.55

Proceed to FSTPPYLLEAA [BRIP1_Y921_S919P_YF]
0.669

Repeat with DKEKWYPLGTS [PIK3C2G_Y1438_N1442T]
0.486

Same question for KDKLPYPYDDP [GPX2_Y125] please.
0.486

Also LKETGYVVERP [BCLAF1_Y466] ?
0.411

Note, next up: VEEDTYTMPST [PTK2_Y407_D402V]
4.81

Please give the result for EEKKKYFDTKI [CASP5_Y103_YF] too.
0.402

Would you mind doing RRGTRYMFSRP [RPL21_Y13] as well?
0.922

Also check THQNSYQPGRK [CEFIP_Y210]
0.299

Now consider IAAEFYDNLPH [DEGS1_Y284_YF] and answer again.
0.723

Try LVMFIDAIFGM [SCN1A_Y1684_Y1684D] next.
0.91

----------
target: FGFR1 (UniProt P11362); assay: phosphorylation enrichment, bacterial display (enrichment ratio); higher = better substrate or ligand; peptides without Tyr show the background
Given measured phosphorylation enrichment, output yes (1) if it is greater than or equal to 0.6 and no (0) if not.

Is reported phosphorylation enrichment greater than or equal to 0.6 here: TVHCDYLNIPH [TAF1L_Y1385]
yes (1)

----------
Listing: phosphorylation enrichment of selected sequences
target: EPHB2 (UniProt P29323); test: phosphorylation enrichment, bacterial display (enrichment ratio); higher = better substrate or ligand; peptides without Tyr show the background
Sequence (P29323 whole entry, looked up): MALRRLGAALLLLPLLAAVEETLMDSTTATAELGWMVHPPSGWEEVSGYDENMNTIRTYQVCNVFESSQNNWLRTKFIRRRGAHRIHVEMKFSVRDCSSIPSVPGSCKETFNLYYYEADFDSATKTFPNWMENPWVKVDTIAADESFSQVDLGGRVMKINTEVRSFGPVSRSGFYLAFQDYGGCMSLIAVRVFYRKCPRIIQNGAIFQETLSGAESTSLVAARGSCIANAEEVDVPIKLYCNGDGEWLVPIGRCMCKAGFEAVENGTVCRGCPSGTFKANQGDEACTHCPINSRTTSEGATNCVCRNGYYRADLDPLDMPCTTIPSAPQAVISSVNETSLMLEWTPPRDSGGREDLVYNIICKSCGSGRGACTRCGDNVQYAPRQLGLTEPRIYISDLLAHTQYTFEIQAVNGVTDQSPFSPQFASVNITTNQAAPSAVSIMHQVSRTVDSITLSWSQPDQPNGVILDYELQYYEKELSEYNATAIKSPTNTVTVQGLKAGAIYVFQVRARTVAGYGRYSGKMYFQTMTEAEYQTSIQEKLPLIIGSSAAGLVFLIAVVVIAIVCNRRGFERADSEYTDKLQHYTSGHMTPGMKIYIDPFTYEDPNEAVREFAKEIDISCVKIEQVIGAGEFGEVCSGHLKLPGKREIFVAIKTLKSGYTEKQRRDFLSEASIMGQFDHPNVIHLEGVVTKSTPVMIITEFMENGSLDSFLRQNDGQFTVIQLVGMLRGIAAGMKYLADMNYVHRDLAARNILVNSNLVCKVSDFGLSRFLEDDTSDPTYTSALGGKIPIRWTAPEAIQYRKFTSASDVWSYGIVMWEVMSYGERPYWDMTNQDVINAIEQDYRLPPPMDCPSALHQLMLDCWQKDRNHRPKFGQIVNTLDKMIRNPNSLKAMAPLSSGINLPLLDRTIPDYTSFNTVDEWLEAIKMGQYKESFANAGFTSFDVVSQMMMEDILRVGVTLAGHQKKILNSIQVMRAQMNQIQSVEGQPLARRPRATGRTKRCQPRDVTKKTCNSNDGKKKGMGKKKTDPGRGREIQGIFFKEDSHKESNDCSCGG
# output: bare number, no unit

Some solved cases for reference:
I am curious: what phosphorylation enrichment value has been reported for VLPIDYYFPPQ [AR_Y552] ?
3.36

Now this one: SFSGEYGGGGG [ZG16_Y30_YF]
0.467

# repeat for VKPHRYRPGTV [H3-5_Y41]
0.337

Then what about the sequence GFRVCYTPDSR [PTPRF_Y451_Y450C_YF] ?
0.512

Try this sequence next: YNDSAYNQQLI [ZPLD1_Y198_T197A]
0.527

Others:
Suppose we examine the sequence SIKDKYVTAFF [KCNH2_Y611_L615F_YF] ; what phosphorylation enrichment value has been reported?
0.44

Also need VKGGAYNPVTV [MCCC2_Y145_Y146N] , thanks.
0.372

Lookup QTLTDYDIRFY [CSNK2A1_Y131]
0.72
